- test-summary: Metabolic stability measured in human liver microsomes
- condition-notes: human, human liver microsomes, pH 7.4
experimental-readout: half-life at 2 μg/mL (h)
Record the value in h, omitting the unit from your answer.

Exam item: State its half-life at 2 μg/mL for this compound: O=C([O-])c1cc(Br)ccc1C(O)CCC1CC1.[Na+] (stereo not shown)
Marked response: 2.44

---

- test-summary: in vivo
- condition-notes: mouse, intravenous
experimental-readout: LD50 (mg/kg)
Just the number in mg/kg, nothing appended.

Exam item: Tell me measured LD50 for O=C(O)c1cc(Br)ccc1C(O)CCCCF (stereo not shown) [Compound 17] please.
Marked response: 1100

---

- test-summary: Metabolic stability measured in human liver microsomes
- condition-notes: human, microsomes, pH 7.4
experimental-readout: half-life at 2 μg/mL
Write your answer as a measured quantity: the number, then the unit.

Exam item: Given O=C([O-])c1cc(Br)ccc1C(O)CCCCF.[Na+] (stereo not shown) [Compound 15] , respond with its half-life at 2 μg/mL.
Marked response: 19.1 h

---

- test-summary: in vivo
- condition-notes: mouse
experimental-readout: LD50 (mg/kg)
Expressed in mg/kg, but write only the number.

Exam item: Please give the documented LD50 of O=C([O-])c1cc(Br)ccc1C(O)CCCCF.[Na+] (stereo not shown)
Marked response: 1040
